Reference for the values: patent US20250108050A1

System: PC9 cells
Assay: cells
Details: Homo sapiens, PC-9, read-out: concentration required to inhibit growth of PC9 cells by 50% (EC50)
Experimental: PC9 cells were seeded at 5×10^5 cells in multiple fresh T75 flasks in growth media and incubated at 37° C., 5% CO2.
pEC50: −log10 of the molar value.

# Compound, System Name, pEC50
data = [
    ("C=CC(=O)Nc1cc(Nc2nccc(-c3cn(C)c4ccccc34)n2)c(OC)cc1N(C)CCN(C)C [AZD9291]", "PC9 cells", 8.00),
]

====

tested on: PC9 (NRAS WT); test: Sytox Green live cell number assay, selumetinib titration; format: cell-based; settings: Homo sapiens, PC9 (NRAS WT) parental, 72 hours
Measurement Name: EC50 (µM)

# Smiles Data, Unit Descriptor, Numeric Result
rows = [
    ("Cn1cnc2c(F)c(Nc3ccc(Br)cc3Cl)c(C(=O)NOCCO)cc21", "µM", 6.95),
]
